# Assay name: in vitro
# Condition context: human, liver microsomes
Recorded endpoint: microsomal CLint at 0.5 h, 1 µM

# example entries with known answers
> print(dat)
                                smiles.repr                recorded.endpoint       meas.value
1  C[C@@H](c1ccc2ncccc2c1)n1nnc2ncc(-c3cnn(C)c3)nc21  microsomal CLint at 0.5 h, 1 µM  < 7.6 µL/min/mg
2  C[C@@H](c1ccc2ncccc2c1)c1nnc2ccc(-c3cnn(C)c3)nn12  microsomal CLint at 0.5 h, 1 µM  < 7.6 µL/min/mg

Query: Dear colleague, please send me the reported microsomal CLint at 0.5 h, 1 µM for C[C@@H](c1ccc2ncccc2c1)c1nnc2ccc(-c3ccc(S(C)(=O)=O)cc3)nn12 when you can.
Response: < 7.6 µL/min/mg
